- Test system: Wnt5a (protein binding on small-molecule microarray)
- ASSAY_TEXT: Wnt5a binders on small-molecule microarray, primary screen, biophysical, 635/667 nm fluorescence (AID 1142);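 further: fluorescence read at 667 nm with signal to noise per printed feature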
- RECORDED_CONDITIONS: 635 nm fluorescence, higher = more signal
# thresholds on composite z-score define classes: bin 0: < 0.07; bin 1: ≥ 0.07 and < 0.8; bin 2: ≥ 0.8

See these solved cases before continuing.
COC(=O)C(CC#Cc1ccc2c(c1)[C@]1(C(=O)N2)[C@H](C(=O)N2CCN(c3ncccn3)CC2)[C@H]2C(=O)O[C@H](c3ccccc3)[C@H](c3ccccc3)N2[C@@H]1c1ccc(O)cc1)C(=O)OC
bin 2
CCCCN1CC=CC23O[C@@H]4C=CCCOC(=O)C4[C@H]2C(=O)N(CCO)[C@@H]3C1=O (some centres undefined)
bin 0

The entry to classify is O=C1OC[C@@H](c2ccccc2)n2cc(/C=C/c3ccccc3)cc21 ; which class holds it?
bin 0

The entry to classify is COC(=O)[C@]1(Cc2ccccc2N=[N+]=[N-])N=C(c2ccc(OCCCO)cc2)O[C@@H]1c1ccccc1CN=[N+]=[N-] ; which class holds it?
bin 1

The entry to classify is COC(=O)[C@@]1(Cc2ccc(F)cc2)[C@H]2c3cc(C(=O)N(C)C)n(Cc4ccsc4Br)c3C[C@H]2CN1C(=O)c1ccccc1 ; which class holds it?
bin 2

The entry to classify is CCOC(=O)C[C@H]1[C@H](OC(=O)c2cc3ccccc3oc2=O)[C@@H](NC(=O)Cc2ccc(OC)cc2)c2cc(OCCCO)ccc2N1C(=O)Cc1ccc(OC)cc1 ; which class holds it?
bin 1

The entry to classify is COC(=O)[C@@]1(Cc2ccc(F)cc2)[C@H]2c3cc(C(=O)N4CCCC4)n(C[C@H](O)CO)c3C[C@H]2CN1C(=O)c1ccccc1 ; which class holds it?
bin 2

The entry to classify is CC(C)(C)OC(=O)CC[C@]1(C(=O)N2CCOCC2)COC(c2ccc(OCCCO)cc2)=N1 ; which class holds it?
bin 0

The entry to classify is CC(C)C[C@H]1NC(=O)CNC(=O)[C@@]23C(=O)N[C@@H](Cc4ccccc4)C2[C@H](C)[C@@]2(C)O[C@H]2C3/C=C/C/C=C\CNC1=O (some centres undefined) ; which class holds it?
bin 0

The entry to classify is CN(C)C(=O)[C@]1(CCS(=O)(=O)c2ccccc2)N=C(c2ccc(OCCCO)cc2)O[C@@H]1c1ccccc1CN=[N+]=[N-] ; which class holds it?
bin 1

The entry to classify is [N-]=[N+]=NCc1ccccc1[C@H]1OC(c2ccc(OCCCO)cc2)=N[C@@]1(Cc1ccccc1N=[N+]=[N-])C(=O)O ; which class holds it?
bin 1

----------
- TESTED_SYSTEM: Dihydroorotate dehydrogenase (quinone), mitochondrial (Plasmodium falciparum (isolate 3D7))
- ASSAY_TEXT: PfDHODH enzyme inhibitors, primary screen, biochemical, C-terminal His tag, absorbance 600 nm (AID 1175);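 further: recombinant parasite enzyme with a five histidine tag at its C terminus; test concentration not given here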
- RECORDED_CONDITIONS: DCIP absorbance 600 nm, higher = more signal, called active from +8 up or from −8 down
Please mark Y if the recorded composite z-score is equal to or greater than -0.2, and N if it falls below.

Cc1ccc(S[C@]2(C(=O)NC3CC3)CC(=O)N(C3Cc4ccccc4C3)[C@@H]2c2ccc(CO)cc2I)cc1
Y
COC(=O)[C@@]1(Cc2ccc(F)cc2)[C@H]2c3cc(C(=O)N4CCCC4)n(Cc4ccc(OC(F)(F)F)cc4)c3C[C@H]2CN1C(=O)c1ccccc1
Y
CC(C)C(=C=CC[C@H](O)c1cccc(OCCO)c1)C[C@H](O)c1ccccn1
N
C=CCNC(=O)[C@H]1[C@@H]2C(=O)O[C@@H](c3ccccc3)[C@@H](c3ccccc3)N2[C@@H](c2ccc(O)cc2)[C@]12C(=O)N(C(=O)OCCOC)c1ccc(C#Cc3ccc(OC)cc3)cc12
N
Cc1ccc(S(=O)(=O)N2[C@@H](c3ccccc3)C(C(=O)O)=CC[C@H]2c2ccc(F)cc2)cc1
N

Now for a further compound.
Hi, just wondering whether C=CCNC(=O)[C@@H]1[C@H]2C(=O)O[C@H](c3ccccc3)[C@H](c3ccccc3)N2[C@H](c2ccc(OCCO)cc2)[C@@]12C(=O)Nc1ccc(C#CC3=CCCCC3)cc12 shows composite z-score of -0.2 or higher.
Y
